- test details: The drug is tested on Collinsella intestinalis strain: DSM13280 for biotransformation. The drug concentrations were measured before and after a 12-h incubation by liquid-chromatography-coupled mass spectrometry (LC–MS)
- condition parameters: 2 µM
recorded metric: Bacterial Biotransformation

>>> result("CC1Cc2ccccc2N1NC(=O)c1ccc(Cl)c(S(N)(=O)=O)c1 (centres undefined) [INDAPAMIDE]")
"Compound NOT metabolized"
>>> result("CC(C)NCC(O)c1ccc(NS(C)(=O)=O)cc1 (centres undefined)")
"Compound NOT metabolized"
>>> result("C[C@@H]1CC[C@H]2[C@@H](C)C(=O)O[C@@H]3O[C@@]4(C)CC[C@@H]1[C@]32OO4")
"Compound metabolized"
>>> result("CC(=O)OCC(=O)[C@@]12N=C(C)O[C@@H]1C[C@H]1[C@@H]3CCC4=CC(=O)C=C[C@]4(C)[C@H]3[C@@H](O)C[C@@]12C")
"Compound metabolized"
